# measurement-target: 5HT-Transporter (Homo sapiens)
# Construct: Human platelet membranes (Oceanix Biosciences Corporation, Hanover, Md., USA) were thawed; tissue Oceanix Biosciences Corporation, Hanover, Md., USA; host or cells: human platelet membranes
# Sequence (P31645 whole entry): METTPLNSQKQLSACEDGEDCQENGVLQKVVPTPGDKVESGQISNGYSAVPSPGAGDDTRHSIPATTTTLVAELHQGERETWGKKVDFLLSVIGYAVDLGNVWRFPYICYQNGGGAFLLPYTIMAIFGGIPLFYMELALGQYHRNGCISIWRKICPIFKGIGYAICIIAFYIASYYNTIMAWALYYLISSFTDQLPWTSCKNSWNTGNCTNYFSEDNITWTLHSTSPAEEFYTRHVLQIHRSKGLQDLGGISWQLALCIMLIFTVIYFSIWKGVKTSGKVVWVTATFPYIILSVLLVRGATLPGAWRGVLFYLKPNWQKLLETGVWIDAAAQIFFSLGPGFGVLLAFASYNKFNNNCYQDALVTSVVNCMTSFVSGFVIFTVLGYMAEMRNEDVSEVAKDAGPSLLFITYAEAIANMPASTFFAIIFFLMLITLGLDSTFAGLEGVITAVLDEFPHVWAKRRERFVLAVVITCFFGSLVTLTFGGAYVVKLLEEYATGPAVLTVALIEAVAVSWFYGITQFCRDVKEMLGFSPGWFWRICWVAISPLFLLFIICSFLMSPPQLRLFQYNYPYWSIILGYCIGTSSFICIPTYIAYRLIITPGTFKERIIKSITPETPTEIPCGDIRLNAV
# assay-text: Binding experiment for the 5HT-transporter ([3H]paroxetine, human platelet membranes)
# measurement-parameters: [3H]paroxetine 0.5 nM
# Experimental: The interaction of a compound of Formula (I) with α2-adrenoceptor receptors was assessed in in vitro radioligand binding experiments. […] When equilibrium of binding is reached, the receptor bound radioactivity is separated from the non-bound radioactivity, and the receptor- or transporter-bound activity is counted. The interaction of the test compounds with the receptor is assessed in competition binding experiments. […]
property-name: h-5HTT pIC50

Examples with answers:
Ask | Recorded h-5HTT pIC50 for CC(=O)NCc1ccc(-n2ccnc(NC3CCN(C/C(C)=C/c4ccccc4)CC3)c2=O)cc1 , please?
Reply | 6.0

Ask | Input COC(=O)CCNCc1cccc(-n2ccnc(NC3CCN(C/C(C)=C/c4ccccc4)CC3)c2=O)c1
Reply | 5.9

Ask | Check C/C(=C\c1ccccc1)CN1CCC(Nc2nccn(-c3cccc(CNCCN4CCOCC4)c3)c2=O)CC1 too.
Reply | 5.5

Ask | # iterate: CCCNCc1cccc(-n2ccnc(NC3CCN(C/C(C)=C/c4ccccc4)CC3)c2=O)c1
Reply | 6.1

Ask | Can you check COC(=O)CN(C)Cc1cccc(-n2ccnc(NC3CCN(C/C(C)=C/c4ccccc4)CC3)c2=O)c1 next?
Reply | 6.0

Ask | Now the same for C/C(=C\c1ccccc1)CN1CCC(Nc2nccn(-c3ccc(CO)cc3)c2=O)CC1
Reply | 5.2

Ask | Thanks! And C/C(=C\c1ccccc1)CN1CCC(Nc2nccn(-c3cccc(CNCCN4CCCC4)c3)c2=O)CC1 ?
Reply | 6.7

Ask | // repeat for COCCN(C)Cc1ccc(-n2ccnc(NC3CCN(C/C(C)=C/c4ccccc4)CC3)c2=O)cc1 and report
Reply | 5.8

Continuing:
Ask | Entry CCN(CC)C(=O)NCc1ccc(-n2ccnc(NC3CCN(C/C(C)=C/c4ccccc4)CC3)c2=O)cc1 has what h-5HTT pIC50?
Reply | 6.3

Ask | Consider next the compound CCOC(=O)N1CCC(NCc2ccc(-n3ccnc(NC4CCN(C/C(C)=C/c5ccccc5)CC4)c3=O)cc2)CC1 in the same way.
Reply | 5.9

Ask | And what about the compound CCOC(=O)N1CCC(NCc2cccc(-n3ccnc(NC4CCN(C/C(C)=C/c5ccccc5)CC4)c3=O)c2)CC1 ?
Reply | 5.5
